Here, each record is paired with measured melting point data.

Field: example entries. Status: answers known.
{"columns": ["molecule", "melting point"],
 "data": [
  ["Cc1cc(C#N)c(N)cc1Cl", "180 °C"],
  ["Cn1cncc1C(O)(c1ccc(Cl)cc1)c1cc2c3c(c1)c(-c1cccc(Cl)c1)cc(=O)n3CC2 (stereo not given)", "214 °C"],
  ["Cc1[nH]cc2c(=O)n(-c3ccc(Cl)cc3)nc-2c1-c1ccc(-c2cccnc2)cc1", "308 to 309 °C"],
  ["CC(C)N(C)S(=O)(=O)NC(=O)c1ccc(F)c([N+](=O)[O-])c1", "164 to 165 °C"],
  ["CCCC(=O)c1cc2c(OCC)cc(C(=O)OCC)nc2cc1C", "123 to 124 °C"],
  ["CN1CCN(c2nc3sc4c(NCc5ccccn5)ncnc4c3c3c2CCC(C)(C)C3)CC1", "200 to 202 °C"],
  ["Fc1ccccc1Cn1cnc2c(Nn3cccc3)ncnc21", "204 to 206 °C"],
  ["O=C1c2ccccc2C(O)N1CCCl (stereo not given)", "133 to 134 °C"],
  ["Cc1cccc(C)c1N1C(=O)CN(C(C)C)C1=S", "135 to 137 °C"],
  ["CCCn1cc(NC(=O)C(N)c2ccc3c(c2)C(C)(C)CCC3(C)C)cc1C(=O)OC (stereo not given)", "152 to 153 °C"]
]}

Fill in: melting point of CCCCCCCCCCCCCCCCCCOc1cc(OCCCCCCc2cccc(O)c2O)cc(C(=O)OC)c1 is ___
82 to 84 °C

Bench note: what melting point did O=C(SCCC(=O)N1C(c2cccs2)SC[C@H]1C(=O)O)c1ccccc1 (stereo not given in full) show?
141 to 143 °C

# melting point lookup, item O=[N+]([O-])c1cccc2nc3c(nc12)OCC1CCCCN31 (stereo not given)
205 to 207 °C

Which value of melting point has been reported for CCCCNC(=O)[C@@H](C[C@H](O)[C@H](CC1CCCCC1)NC(=O)[C@H](Cc1cscn1)NC(=O)[C@@H](CC(=O)N(C)Cc1ccccc1)Cc1ccccc1)C(C)C in the records?
155 to 156 °C

For the molecule CCCc1c(OCCCCCCCC(=O)O)ccc(C(C)=O)c1O , what melting point is on record?
73 to 76 °C

May I ask what melting point has been recorded for CON=C(C(=O)OC)c1ccccc1-c1nnc(-c2cccc(C)c2)o1 ?
166 to 167 °C

Using the record for CC1CCn2c(nc(-c3ccncc3)cc2=O)N1 (stereo not given) , report its melting point.
245 to 247 °C

Given CS(=O)(=O)Nc1ccc(-n2nc(C(F)(F)F)nc2-c2ccc(S(C)(=O)=O)cc2)cc1 , state its recorded melting point.
188 °C

// lookup melting point for COCCOc1ccccc1OS(=O)(=O)NC(=O)Nc1nc(OC)cc(OC)n1
106 to 108 °C

Using the record for COc1ccc(C(O)Cc2ccncc2)c2c1OC1(CCCCC1)CC2 (stereo not given) , report its melting point.
123 to 133 °C

###

value_kind: melting point

For orientation, consider the following solved cases.
{"columns": ["compound", "melting point"],
 "data": [
  ["CCCCC/C=C\\C/C=C\\CCCCCCCC(=O)Nc1c(OC)cc(OC)cc1OC", "87 to 89 °C"],
  ["C#CCNC(=O)c1cccc(F)c1Nc1nc(Nc2ccc3c(c2)OCCCN3C(C)=O)ncc1Cl", "196 to 199 °C"],
  ["CN(O)C(=O)NCCc1ccc2c(c1)OCO2", "99 to 100 °C"],
  ["NC(=O)[C@@H]1COCN1C(=O)CCl", "131 to 133 °C"],
  ["O=S(=O)(N[C@H](CO)c1ccccc1)c1ccc(Cl)cc1", "127 to 128 °C"],
  ["O=c1[nH]nc(-c2ccccc2SCc2ccccc2)o1", "169 to 172 °C"],
  ["CCC(=O)OCOC(=O)C1=C(C)NC(C)=C(C(=O)OC)C1c1cccc(Cl)c1Cl (stereo unspecified)", "124 to 126 °C"],
  ["CC(C)(C)CNN(CC(C)(C)C)S(=O)(=O)c1nc(Cl)cs1", "157 °C"]
]}

Now for another entry.
So what does the record say about melting point for Nc1cccc(C(=O)NCC23CC4CC(CC(C4)C2)C3)c1Cl ?
154 °C

###

value_kind: melting point

Here is how some compounds turned out for melting point.
{"columns": ["compound", "melting point"],
 "data": [
  ["O=C(Nc1ccccc1Cl)Oc1ccc2c(c1)N(Cc1ccccc1)CCC2", "145 °C"],
  ["C=CCOc1ccc(C(=O)c2ccnn2C)c(Cl)c1Cl", "118 to 119 °C"],
  ["O=C(NC(c1ccccc1)c1ccccc1)NS(=O)(=O)Cl", "80 to 88 °C"],
  ["CCc1ccc(C(C)=O)c(NC(C#N)c2c(Cl)cccc2Cl)c1 (stereo unspecified)", "111 °C"],
  ["Fc1cc(Cl)c2nc(Cl)sc2c1N=C=S", "80 to 81 °C"],
  ["CCOC(=O)C1=Cc2cc(N)ccc2OC1C(F)(F)F (stereo unspecified)", "111 to 115 °C"],
  ["N#Cc1cc(NC(=O)c2cc3ccccc3s2)ccc1N1CCC(CCO)CC1", "218 °C"],
  ["O=C(SCCC(=O)N1c2ccccc2CCC1C(=O)O)c1ccccc1 (stereo unspecified)", "99 to 101 °C"]
]}

Given the entry O=C(CCc1ccc(O)cc1)OCc1ccc([N+](=O)[O-])cc1 , report its measured melting point.
80 to 82 °C

Reported melting point, compound COC(=O)C=Cc1cncn1Cc1ccccc1 : ____
137 to 139 °C

###

Listed next: entries and their corresponding melting point.

Worked set:
{"columns": ["compound", "value_kind", "obs_value"],
 "data": [
  ["COc1cc(C=O)c(OC)c2ccccc12", "melting point", "120 to 123 °C"],
  ["O=C(O)CCc1cc2cc(Cl)ccc2n1S(=O)(=O)c1ccc2ccccc2c1", "melting point", "160 °C"],
  ["CC(NC(=O)C1=C(C(=O)Nc2cc(OC3CCCCC3)c(Cl)cc2F)CCCC1)c1ccccc1 (stereo not given)", "melting point", "156 to 159 °C"],
  ["Clc1ncnc2c1ncn2-n1cccc1", "melting point", "204 to 206 °C"],
  ["CCn1c(=O)c2c(nc(/C=C/c3cc(OC)ccc3OC(C)=O)n2C)n(CC)c1=O", "melting point", "186 to 187 °C"],
  ["Cc1cccc(CC(N)(CF)C(=O)O)c1O (stereo not given)", "melting point", "168 °C"],
  ["O=C(O)C=C=Cc1ccc(C2CCCCC2)cc1", "melting point", "126 to 129 °C"],
  ["CN(C)Cc1ccc2cc(-c3nnc(CSCCOc4ccccc4)o3)ccc2c1", "melting point", "95 to 96 °C"]
]}

Which melting point is reported for this compound? C=CCn1c(=O)c(C(=O)OCC)c(O)c2ccc(C)nc21
110 to 112 °C

Query: melting point; subject: Cc1cc(-c2ccc(Cl)cc2)nc2c(C(=O)Nc3cccc(S(N)(=O)=O)c3)cnn12
308 to 310 °C

###

Each record here notes measured melting point.

These recorded examples may help you get a feel for the data.
{"columns": ["compound", "obs_value"],
 "data": [
  ["N#Cc1ccc(Oc2ncccc2C(=O)O)cc1", "198 to 200 °C"],
  ["O=C(Nc1cccc2c1C(=O)N(C1CCN(c3ccncc3)CC1)C2=O)c1ccc(Cl)s1", "214 °C"],
  ["CCc1cccc(Cn2[nH]c(N)cc2=O)c1", "73 °C"],
  ["CCN(C#N)C(=O)CCCCC(=O)N(C#N)CC", "38.7 to 40.1 °C"]
]}

Quick one: melting point for O=C(Nc1ccc(Cl)cc1)n1cc(F)c(=O)[nH]c1=O ?
> 260 °C

Which value of melting point has been reported for COc1ccc(CCNC(=O)c2ccc3c(c2)C=CC(C)(C)O3)cc1 in the records?
105 to 107 °C

What measured melting point goes with CCC(C#N)(CC)c1nsc2ccc(-n3c(=O)cc(C(F)(F)F)n(C)c3=O)cc12 ?
76 to 78 °C

Which melting point value is on record for COc1cc(C2OCC(C)(C)C2(O)C(C)(C)C)cc(OC)c1Br (stereo not given) ?
130 to 131 °C

Look at this compound and give its reported melting point. O=c1ncc(Cl)cn1COCc1cccs1
132 °C

Sample CC1(C)CCC(C(=O)N2CCC[C@H]2C(=O)O)C1SC(=O)c1ccccc1 (stereo not given in full) — what was its melting point?
187 °C

Requested read-out: melting point. Entry: CC(C)CC1(C(CCN2C(=O)c3c(F)c(F)c(F)c(F)c3C2=O)C(=O)NO)CCN(Cc2ccccc2)C1=O (stereo not given)
183 to 185 °C

Dear colleague, I am looking for the recorded melting point of the following compound: Cn1cc(-c2cccc(N3Cc4cc(C(C)(C)C)ccc4C3=O)c2CO)cc(Nc2ccncn2)c1=O
216 to 218 °C
